src = the supplement of paper PMC9233669

test system: biotinyl-Ile-oxazolone; assay: self-aminoacylation, catalytic enhancement (BIO) (fold over background); higher = more active; k-Seq, kA / k0A0; sequences stand for … in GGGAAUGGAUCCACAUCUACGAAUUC…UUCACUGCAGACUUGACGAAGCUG
Fewer inactive variants are shown than the library holds.
measurement.kind: self-aminoacylation

Sample AUUACCUUAGUCAUCGAGUGA [Fam2.1 aminoacylation ribozyme variant] — what was its self-aminoacylation?
2.71

Sample GCACUUCAAACAAUCGGUCUG [Fam1A.1 aminoacylation ribozyme variant] — what was its self-aminoacylation?
2.33

Sample CUACUUCACUCAAUCGGUCUG [Fam1A.1 aminoacylation ribozyme variant] — what was its self-aminoacylation?
0.732

Sample AUUACCCUGGACAUCGACUGA [Fam2.1 aminoacylation ribozyme variant] — what was its self-aminoacylation?
0.543

Sample AGUCAACUAGGUCAUCGGGUG [Fam2.2 aminoacylation ribozyme variant] — what was its self-aminoacylation?
5.91

Sample CCAUACUUCAAGCAAUCGGAC [Fam1B.1 aminoacylation ribozyme variant] — what was its self-aminoacylation?
1.01

Sample UCACACUCCAAGCAAUCGGUC [Fam1B.1 aminoacylation ribozyme variant] — what was its self-aminoacylation?
0.885

Continue with the sequence presented below.
Sample AUUACCCUCGACAUCGAGUGA [Fam2.1 aminoacylation ribozyme variant] — what was its self-aminoacylation?
4.58
